system tested: Protein translocase subunit SecA (Escherichia coli (strain K12)) (UniProt P10408)
Sequence (P10408 whole entry): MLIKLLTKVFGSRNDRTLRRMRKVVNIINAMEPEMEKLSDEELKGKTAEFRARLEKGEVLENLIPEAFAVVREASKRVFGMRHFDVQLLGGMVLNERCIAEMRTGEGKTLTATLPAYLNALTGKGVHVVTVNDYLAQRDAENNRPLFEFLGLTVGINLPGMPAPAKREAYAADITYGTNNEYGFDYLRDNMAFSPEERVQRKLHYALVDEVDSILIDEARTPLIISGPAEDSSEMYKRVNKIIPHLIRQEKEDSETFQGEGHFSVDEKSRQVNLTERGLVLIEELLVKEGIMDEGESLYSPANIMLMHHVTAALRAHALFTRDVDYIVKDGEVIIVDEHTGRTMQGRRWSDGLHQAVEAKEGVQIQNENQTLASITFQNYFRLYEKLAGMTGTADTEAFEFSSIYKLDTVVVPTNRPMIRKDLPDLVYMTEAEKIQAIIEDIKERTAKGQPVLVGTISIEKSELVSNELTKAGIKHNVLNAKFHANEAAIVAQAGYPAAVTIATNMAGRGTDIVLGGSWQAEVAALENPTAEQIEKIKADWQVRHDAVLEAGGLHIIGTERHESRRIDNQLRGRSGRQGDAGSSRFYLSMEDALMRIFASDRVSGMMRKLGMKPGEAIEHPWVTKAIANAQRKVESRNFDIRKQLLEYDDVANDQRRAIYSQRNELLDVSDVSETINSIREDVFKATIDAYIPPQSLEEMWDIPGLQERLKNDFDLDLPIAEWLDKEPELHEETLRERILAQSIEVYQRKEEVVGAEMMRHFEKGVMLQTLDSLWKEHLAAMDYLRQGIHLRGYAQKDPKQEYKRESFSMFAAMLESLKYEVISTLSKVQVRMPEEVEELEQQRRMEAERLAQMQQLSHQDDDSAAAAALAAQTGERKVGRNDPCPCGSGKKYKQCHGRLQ
test method notes: Assay to Identify E. coli SecA ATPase Inhibitors
Format: functional
Set-up: scale not given: direction of the effect not stated beside the values
condition: 30 µM
Results with a measured potency or affinity are listed apart.
Form field: Percent Effect (one value per entry).
Express your answer as a number followed by its unit.

Quote Percent Effect reported for "O=C(NCCCN1CCCC1=O)Nc1ccc(Br)cc1Cl" please. -4.26%

Quote Percent Effect reported for COc1cccc(COCC(=O)N2CCCC(c3cc(C)[nH]n3)C2)c1 (configuration not stated) please. -3.58%

Quote Percent Effect reported for "CC(C)C(=O)N1CCN(C(=O)CCc2nnc(-c3ccccc3)o2)CC1" please. -1.03%

Quote Percent Effect reported for "O=C(Cc1ccc2c(c1)CCCC2)NCCc1ccccn1" please. -2.72%

Quote Percent Effect reported for COc1ccc(C2CCCN2C(=O)NCCNc2ncccn2)cc1 (configuration not stated) please. 0.96%

Quote Percent Effect reported for "c1ccc(CN2CCN(Cc3cscn3)CC2)cc1" please. -3.29%

Quote Percent Effect reported for Cc1cnn(CC2CN(Cc3nc4ccccc4nc3C)CCO2)c1 (configuration not stated) please. -4.61%

###

system tested: Arginase-2, mitochondrial (Homo sapiens) (UniProt P78540)
Sequence (whole entry): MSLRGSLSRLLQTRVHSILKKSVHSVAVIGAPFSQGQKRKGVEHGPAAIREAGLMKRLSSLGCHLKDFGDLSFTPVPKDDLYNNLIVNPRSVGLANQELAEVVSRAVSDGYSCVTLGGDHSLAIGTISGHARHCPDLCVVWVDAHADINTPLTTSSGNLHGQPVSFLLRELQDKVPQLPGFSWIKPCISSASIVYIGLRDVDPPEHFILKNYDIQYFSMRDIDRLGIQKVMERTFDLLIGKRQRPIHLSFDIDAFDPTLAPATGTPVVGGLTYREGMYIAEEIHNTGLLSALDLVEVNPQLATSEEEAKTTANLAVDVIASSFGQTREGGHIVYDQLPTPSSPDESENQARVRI
test method notes: in vitro enzyme assay to detect the production of urea directly proportional to the activity of Arginase II; note: in the data most compounds retested in dose-response had high values
Assay type: functional
Design: scale not given: direction of the effect not stated beside the values
condition: 33.3 µM
Form field: Percent Effect (one value per entry).
Your answer is read as %, so omit the unit and give the number.

CN(C)C(=O)CO[C@H]1CN(Cc2ccc(F)cc2)[C@@H]2CCCO[C@H]12
2.76

Enter measured Percent Effect, system Arginase-2, mitochondrial (Homo sapiens) (UniProt P78540), for the molecule shown: CN1CCCC(CNC(=O)N2CCN(Cc3ccon3)CC2)C1 (stereo unspecified) -1.04

Enter measured Percent Effect, system Arginase-2, mitochondrial (Homo sapiens) (UniProt P78540), for the molecule shown: "O=C(NCCn1ccc(-c2ccccn2)n1)C1CC1" 5.81

Enter measured Percent Effect, system Arginase-2, mitochondrial (Homo sapiens) (UniProt P78540), for the molecule shown: "Cc1ccc(C(=O)Nc2cc(C(C)C)n[nH]2)cn1" 3.56

Enter measured Percent Effect, system Arginase-2, mitochondrial (Homo sapiens) (UniProt P78540), for the molecule shown: O=C1CCC(C(=O)NCc2nncn2-c2ccccc2)CN1 (stereo unspecified) -7.21

Enter measured Percent Effect, system Arginase-2, mitochondrial (Homo sapiens) (UniProt P78540), for the molecule shown: Cc1ccc(N2CCCC(NCC(=O)NC3CCOCC3)C2)nn1 (stereo unspecified) 4.95

Enter measured Percent Effect, system Arginase-2, mitochondrial (Homo sapiens) (UniProt P78540), for the molecule shown: "Cc1noc2nc(C3CCN(Cc4ccncc4)CC3)cc(C(F)F)c12" -4.41

Enter measured Percent Effect, system Arginase-2, mitochondrial (Homo sapiens) (UniProt P78540), for the molecule shown: "Cc1cc(NC(=O)CN2CCn3c(nnc3C(C)C)C2)no1" -5.26

Enter measured Percent Effect, system Arginase-2, mitochondrial (Homo sapiens) (UniProt P78540), for the molecule shown: "Cc1ccc(CN2CCN(CC3CC3)[C@@H]3CS(=O)(=O)C[C@@H]32)cc1C" 2.08

Enter measured Percent Effect, system Arginase-2, mitochondrial (Homo sapiens) (UniProt P78540), for the molecule shown: "Cc1nnc([C@@H]2CC[C@@H]3[C@@H](CCN3S(=O)(=O)c3cccnc3)O2)o1" 6.05

Enter measured Percent Effect, system Arginase-2, mitochondrial (Homo sapiens) (UniProt P78540), for the molecule shown: O=C(c1ccco1)N1CCOCC2(C1)CN(c1ccccc1)C(=O)CO2 (stereo unspecified) -27.8

###

system tested: Chromo domain-containing protein 1 (Saccharomyces cerevisiae (strain ATCC 204508 / S288c) (Baker's yeast)) (UniProt P32657)
Sequence (P32657 whole entry, the tested form may be a part): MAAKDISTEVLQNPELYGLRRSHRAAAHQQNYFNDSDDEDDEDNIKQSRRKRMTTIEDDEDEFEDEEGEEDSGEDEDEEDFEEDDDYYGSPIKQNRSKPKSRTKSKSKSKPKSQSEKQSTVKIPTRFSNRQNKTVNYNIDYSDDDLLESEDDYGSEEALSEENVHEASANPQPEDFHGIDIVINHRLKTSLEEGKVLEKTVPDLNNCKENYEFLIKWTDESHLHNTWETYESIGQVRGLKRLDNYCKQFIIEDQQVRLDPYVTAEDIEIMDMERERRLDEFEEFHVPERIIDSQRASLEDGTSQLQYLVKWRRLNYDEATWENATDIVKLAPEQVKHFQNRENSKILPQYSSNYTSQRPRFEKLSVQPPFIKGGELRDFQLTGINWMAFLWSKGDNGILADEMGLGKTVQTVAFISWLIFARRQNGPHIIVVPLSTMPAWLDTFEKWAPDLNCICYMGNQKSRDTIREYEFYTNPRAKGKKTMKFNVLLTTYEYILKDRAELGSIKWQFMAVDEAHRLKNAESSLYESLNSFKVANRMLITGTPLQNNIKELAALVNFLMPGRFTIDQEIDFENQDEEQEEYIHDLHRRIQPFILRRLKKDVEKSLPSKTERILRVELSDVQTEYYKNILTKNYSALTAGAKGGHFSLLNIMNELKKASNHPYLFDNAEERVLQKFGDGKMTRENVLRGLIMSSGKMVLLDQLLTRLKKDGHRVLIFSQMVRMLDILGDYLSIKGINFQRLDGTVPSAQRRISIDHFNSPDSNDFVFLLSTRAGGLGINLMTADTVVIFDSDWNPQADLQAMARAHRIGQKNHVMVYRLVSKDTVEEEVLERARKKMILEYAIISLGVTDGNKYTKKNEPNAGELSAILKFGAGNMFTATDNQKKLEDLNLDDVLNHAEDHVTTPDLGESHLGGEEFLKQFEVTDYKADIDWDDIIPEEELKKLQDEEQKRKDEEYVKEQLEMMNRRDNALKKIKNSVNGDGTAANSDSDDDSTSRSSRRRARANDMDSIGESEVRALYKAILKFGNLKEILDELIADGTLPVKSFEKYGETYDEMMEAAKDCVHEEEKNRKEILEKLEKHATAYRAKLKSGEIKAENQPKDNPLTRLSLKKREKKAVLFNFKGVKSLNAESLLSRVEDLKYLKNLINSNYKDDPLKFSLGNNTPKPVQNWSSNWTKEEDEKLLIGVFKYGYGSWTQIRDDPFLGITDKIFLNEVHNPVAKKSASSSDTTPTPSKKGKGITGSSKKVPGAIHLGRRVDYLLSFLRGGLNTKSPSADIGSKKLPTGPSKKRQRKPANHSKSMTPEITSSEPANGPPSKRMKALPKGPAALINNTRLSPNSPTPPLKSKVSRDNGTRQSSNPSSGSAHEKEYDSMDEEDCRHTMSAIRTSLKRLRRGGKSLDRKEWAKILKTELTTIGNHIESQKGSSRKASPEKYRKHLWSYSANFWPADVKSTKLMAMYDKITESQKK
test method notes: ScCHD-1 Enzyme Inhibition Assay; note: in the data most compounds retested in dose-response had high values
Type: functional
Design: scale not given: direction of the effect not stated beside the values
condition: 30 µM
measure name: Percent Effect (%)
Your answer is read as %, so omit the unit and give the number.

The examples below pair each entry with its known result.
CCc1nccn1C1CCCN(C(=O)CCc2nccs2)C1 (centres undefined)
-1.72
CCS(=O)(=O)N1CCC2(CCCN(Cc3cc(OC)ccc3F)C2)C1 (centres undefined)
-4.39
c1ccc2c(N3CCCC3Cn3cccn3)ncnc2c1 (centres undefined)
-8.26
O=C1[C@H]2CC[C@H](CN(Cc3ccccc3OC(F)F)C2)N1CC1CC1
-1.8
c1coc(CN2Cc3nccn3CC(Cn3cncn3)C2)c1 (centres undefined)
-1.23

Quote Percent Effect reported for COc1cc(CCC(=O)NCC2CCCN2C)ccc1OCC(F)(F)F (centres undefined) please. -7.41

Quote Percent Effect reported for CN(CC1COc2ccccc2O1)C(=O)NCCCn1ccnc1 (centres undefined) please. 7.75

Quote Percent Effect reported for Cc1cnn(C2CCCN(C(=O)C3=NN(C)C(=O)CC3)C2)c1 (centres undefined) please. -12.6

Quote Percent Effect reported for "Cc1noc(CN(Cc2ccc3c(c2)OCO3)Cc2ccc(C)o2)n1" please. -6.37

Quote Percent Effect reported for Cc1cnn(CC2CN(Cc3nc(-c4ccoc4)no3)CCO2)c1 (centres undefined) please. -9.57

###

Form field: Percent Effect (one value per entry).
system tested: AMP-activated protein kinase, AMPK (Homo sapiens) (UniProt P54646+O43741+P54619+Q9UGJ0+Q9Y478+Q13131+Q9UGI9)
test method notes: AMP-dependent Kinase enzyme assay. An in vitro enzyme assay that detects ADP turnover that is directly proportional to AMPK activity. This uses naive AMPK that is activated during the assay with MK-8722
Type: functional
Parameters: scale not given: direction of the effect not stated beside the values
condition: 30 µM
Your answer is read as %, so omit the unit and give the number.

The examples below pair each entry with its known result.
Cc1ccc(C(CNCc2cnn(C(C)C)c2)N2CCOCC2)s1 (stereo unspecified)
-0.219
Cc1ccc(C(=O)N2CC[C@@H]3[C@H]2CCC(=O)N3c2ccccc2)o1
14
Cc1ccc(NC(C)C(=O)NCc2cccs2)cc1C (stereo unspecified)
6.74
CC(C(=O)Nc1cccc(N2CCCCC2)c1)n1cncn1 (stereo unspecified)
-9.41
COCC(=O)N1CCC(c2nc3ccc(-c4ccccc4)cn3n2)CC1
4.81

Quote Percent Effect reported for "COc1cc2cc(C(=O)O)n(C)c2cc1OC" please. 7.45

###

Tested on: Trypanosoma cruzi
test method notes: Trypanosoma cruzi phosphomannomutase and mannose-1-phosphate guanylyltransferase assay
Type: functional
Design: scale not given: direction of the effect not stated beside the values
condition: 10 µM
measure name: Percent Effect
Express your answer as a number followed by its unit.

The examples below pair each entry with its known result.
O=C(CSc1nncs1)N1CCN(Cc2ccc(Cl)s2)CC1
5.88%
CN(C)S(=O)(=O)N1CCC2(COCc3cnc(-c4ccccc4)nc32)C1 (stereo unspecified)
4.44%

Quote Percent Effect reported for "Cn1cnc2c1CCN(CCCOc1ccc(C#N)cc1)C2" please. -2.93%

Quote Percent Effect reported for O=C1C(NS(=O)(=O)c2cc(F)cc(F)c2)CCN1Cc1ccccc1 (stereo unspecified) please. 6.52%

Quote Percent Effect reported for "Cc1noc(CN(Cc2ccc3c(c2)OCO3)C2CCCC2)n1" please. -1.04%

Quote Percent Effect reported for "CC(=O)N1CCn2cc(CNC(=O)c3cccn3C)nc2C1" please. -5.32%

Quote Percent Effect reported for "O=C(N[C@@H]1CN(Cc2ccc3c(c2)OCO3)[C@@H]2CCCO[C@@H]21)C1CC1" please. -5.99%

Quote Percent Effect reported for "O=C(Cn1ccc2ccc(Br)cc21)NCc1ccc(C(=O)O)cc1" please. -7.69%

Quote Percent Effect reported for "O=C(CCCc1cn[nH]c1)N1C[C@@H](CN2CCOCC2)[C@@H](CO)C1" please. -2.74%

Quote Percent Effect reported for CCC(C)(NCC(=O)N(c1ccccc1)C(C)C)c1nc(C)cs1 (stereo unspecified) please. 1.27%

Quote Percent Effect reported for NC(=O)c1ccc(CN2CCCC(O)C2)cc1 (stereo unspecified) please. 4.69%

###

system tested: Arginase-2, mitochondrial (Homo sapiens)
test method notes: in vitro enzyme assay to detect the production of urea directly proportional to the activity of Arginase II; note: in the data most compounds retested in dose-response had high values
Assay type: functional
Set-up: scale not given: direction of the effect not stated beside the values
condition: 33.3 µM
Form field: Percent Effect (one value per entry).
Your answer is read as %, so omit the unit and give the number.

Cc1cc(C)c2nc(CN3CCOC(CCO)C3)cc(O)c2c1 (stereo unspecified)
-2.38
O=C(NCc1cncc2c1CCN(Cc1cccc(F)c1)C2)C1CC1
-5.59
Cc1nc(C)n(C2CCCN(C(=O)c3ccc4c(c3)COC4)C2)n1 (stereo unspecified)
2.4
Cc1ccc(C)c(OCCN2CCC(N3CCNC3=O)CC2)c1
2.03
CC(=O)N1CCCCC1c1cc(C(=O)N2CCOCC2)[nH]n1 (stereo unspecified)
-0.232
CCCS(=O)(=O)N1CCC2(CN(c3ccsc3)C(=O)CN2C)C1 (stereo unspecified)
5.83

Below: the item to evaluate.
Enter measured Percent Effect, system Arginase-2, mitochondrial (Homo sapiens), for the molecule shown: "O=C(NCCN1CCCCC1)c1nc2ccccc2c(=O)[nH]1" -13.6
